Overview of recorded inhibition for various compounds
- Assay comment: growth suppression of yeast trafficking mutant, preliminary HTS, modulators of trafficking downstream of Golgi apparatus project, 1536-format plate, OD 615 nm (AID 637); also: test concentration not given here
- Experimental setup: yeast transport mutant growth, absorbance 615 nm, 18 h; active compounds read high
Give just the numeric value; % need not be written.

Worked cases, inhibition given:
CCC1CCc2c(sc3ncnc(N4CCOCC4)c23)C1 (configuration not stated) :: -0.16
CC(C)CCNC(=O)C(C)N(Cc1ccc(F)cc1)C(=O)c1ccc(CN2CCCCC2)o1 (configuration not stated) :: -2.91
CCOC(=O)c1ccc(NC(=O)CCc2nc(-c3ccc(C)cc3)no2)cc1 :: 3.93

-- ask Data request, read-out inhibition, for Cc1ccc(-c2ccc(=O)n(CCC(=O)NCCN3CCCCC3C)n2)cc1 (configuration not stated)
-- reply -5.56

-- ask Quick one: inhibition for O=S(=O)(c1cccc(S(=O)(=O)N2CCC(N3CCCCC3)CC2)c1)N1CCOCC1 ?
-- reply -2.95

-- ask Param item = O=C(NCc1ccc2c(c1)OCO2)c1ccc(NS(=O)(=O)c2ccc3c(c2)OCCO3)cc1 ; retrieve measured inhibition.
-- reply -3.65

-- ask I would be grateful if you could share the reported inhibition for CC(C)Cn1c2c(c(O)c(C(=O)Nc3ncccc3O)c1=O)CCCC2 .
-- reply -2.91

-- ask What inhibition value was documented for this compound, CCOC(=O)CSc1nn(C)c(=S)s1 ?
-- reply -1.5

-- ask Quick one: inhibition for Brc1ccc(-c2nnc3sc(CN4CCC5(CC4)OCCO5)cn23)cc1 ?
-- reply -2.22

-- ask Fill blank: measured inhibition of the compound CN(C)CC(=O)N1c2ccccc2CCc2ccc(NC(=O)c3ccc(N)cc3)cc21 is ____.
-- reply 4.26

-- ask # get_value(readout='inhibition', item= CCOC(=O)C1=C(c2ccccc2)N2CCS(=O)(=O)N=C2S1 )
-- reply 0

-- ask Which inhibition reading was recorded for the compound CC1CN(C(=O)CSc2nnc(-c3ccc(Cl)cc3)n2C)CC(C)O1 (configuration not stated) ?
-- reply 2.91
